A collection of compounds and their measured composite z-score
test system: glycogen synthase kinase-3 (GSK3A per assay name; protocol says GSK3B); test: compounds binding glycogen synthase kinase-3 – biochemical, small-molecule microarray, 635 nm fluorescence, GSK3A, primary screen (AID 1103); settings: fluorescence 635 nm, higher = more signal; note: the record names both GSK3A and GSK3B

- Molecule smiles: "C=CC[C@]1(C(=O)N(C)C)N=C(c2ccc(OCCCO)cc2)O[C@H]1c1ccccc1"
  composite z-score: 0.254
- Molecule smiles: "C[N+](C)(C)CCCCCCNC(=O)[C@H]1C[C@H]2C(=O)N3CCC[C@H]3C(=O)N2[C@H]1c1cccc(OCCO)c1"
  composite z-score: 1.23
- Molecule smiles: "COCCOC(=O)N1C(=O)[C@@]2(c3cc(C#CCNC(N)=O)ccc31)[C@H](c1ccc(OCCO)cc1)N1[C@H](c3ccccc3)[C@H](c3ccccc3)OC(=O)[C@H]1[C@@H]2C(=O)N1CCN(c2ncccn2)CC1"
  composite z-score: 0.824
